Protein target, amino acids: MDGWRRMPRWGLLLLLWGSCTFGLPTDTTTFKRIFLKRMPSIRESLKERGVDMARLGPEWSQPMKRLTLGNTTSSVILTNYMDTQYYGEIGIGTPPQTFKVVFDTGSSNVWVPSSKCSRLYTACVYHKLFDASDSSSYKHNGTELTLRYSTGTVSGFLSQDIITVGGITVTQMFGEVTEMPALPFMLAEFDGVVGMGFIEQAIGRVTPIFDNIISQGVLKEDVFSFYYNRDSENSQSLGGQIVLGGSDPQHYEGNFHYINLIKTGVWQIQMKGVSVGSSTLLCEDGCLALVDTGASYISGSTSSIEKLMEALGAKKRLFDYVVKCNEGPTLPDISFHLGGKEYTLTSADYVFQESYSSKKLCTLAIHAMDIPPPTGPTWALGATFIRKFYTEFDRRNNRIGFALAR
From various publications: pIC50 for the protein given by its sequence.
# pIC50: negative log10 of molar concentration; output just the value

Examples with their reported pIC50 follow.
CCCCNC(=O)[C@H](C)C[C@H](O)[C@@H](N)CC(C)(C)CCCc1ccc2ccccc2c1 :: 5.43
CC(C)[C@H](C[C@H](O)[C@@H](N)CN1CC(=O)N(c2cc(F)cc(F)c2)CC1(C)C)C(=O)NCC(C)(C)C(N)=O :: 8.26
CCCCNC(=O)[C@H](C)C[C@H](O)[C@H](CC1CCCCC1)NC(=O)[C@H](CCCC)OP(=O)(O)CCCc1ccccc1 :: 8.60

# evaluate next
pIC50 on the protein given by its sequence for COc1ccccc1COCCCOc1ccc(N2C(=O)CNC[C@@H]2COCc2ccc(F)c(F)c2)cc1 is 6.60
